Biological target: Aminopeptidase N (Homo sapiens)
Sequence (P15144 whole entry): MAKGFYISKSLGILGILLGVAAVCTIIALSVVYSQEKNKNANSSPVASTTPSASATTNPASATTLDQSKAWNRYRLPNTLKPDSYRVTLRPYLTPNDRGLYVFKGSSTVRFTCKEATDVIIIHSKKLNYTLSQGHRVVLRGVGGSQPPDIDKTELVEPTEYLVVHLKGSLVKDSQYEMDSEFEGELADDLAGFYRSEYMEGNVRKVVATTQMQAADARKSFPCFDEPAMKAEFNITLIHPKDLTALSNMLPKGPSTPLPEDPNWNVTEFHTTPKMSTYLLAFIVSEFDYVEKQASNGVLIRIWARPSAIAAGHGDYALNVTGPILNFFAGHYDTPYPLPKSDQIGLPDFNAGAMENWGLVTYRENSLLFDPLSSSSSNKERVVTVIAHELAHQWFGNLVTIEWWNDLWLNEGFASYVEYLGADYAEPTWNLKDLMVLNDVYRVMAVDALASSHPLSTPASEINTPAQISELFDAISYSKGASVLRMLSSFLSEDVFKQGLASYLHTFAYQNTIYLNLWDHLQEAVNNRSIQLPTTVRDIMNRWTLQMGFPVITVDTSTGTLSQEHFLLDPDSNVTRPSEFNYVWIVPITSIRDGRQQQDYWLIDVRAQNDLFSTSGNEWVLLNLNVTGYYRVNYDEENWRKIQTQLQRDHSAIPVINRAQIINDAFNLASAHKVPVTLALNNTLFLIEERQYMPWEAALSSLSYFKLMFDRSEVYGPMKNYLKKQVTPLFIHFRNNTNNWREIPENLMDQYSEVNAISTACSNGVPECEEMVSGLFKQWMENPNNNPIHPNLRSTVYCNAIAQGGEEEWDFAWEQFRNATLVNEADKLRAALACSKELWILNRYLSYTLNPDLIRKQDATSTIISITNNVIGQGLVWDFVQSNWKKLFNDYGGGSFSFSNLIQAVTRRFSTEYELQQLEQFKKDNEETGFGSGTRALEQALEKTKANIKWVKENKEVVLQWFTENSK
measurementType: IC50 (µM)
# unit: µM | format: bare number

-- ask What value of measured IC50 is listed for COC(=O)[C@@H]1C[C@@H](OS(C)(=O)=O)CN1C(=O)/C=C/c1ccc(OC)c(OC)c1 ?
-- reply 46.6

-- ask Now give it for COC(=O)[C@@H]1C[C@H](NC(=O)c2ccc(Br)cc2)CN1C(C)=O too.
-- reply 149

-- ask Now consider COC(=O)CNC(=O)[C@@H]1C[C@H](NC(=O)c2cc(OC)c(OC)c(OC)c2)CN1C(C)=O and answer again.
-- reply 121

-- ask Likewise for COC(=O)[C@@H]1C[C@H](NC(=O)c2ccc([N+](=O)[O-])cc2)CN1C(C)=O ?
-- reply 72.3

-- ask Try this molecule too: COC(=O)[C@@H]1C[C@H](N)CN1C(=O)CCc1ccc(OC)c(OC)c1
-- reply 68.4

-- ask Now consider COC(=O)[C@@H]1C[C@H](NC(=O)c2ccccc2)CN1C(C)=O .
-- reply 123

-- ask And for COC(=O)[C@@H]1C[C@H](N=[N+]=[N-])CN1C(C)=O ?
-- reply 73.7

-- ask Then this molecule: COc1cc(C(=O)N[C@H]2C[C@@H](C(=O)NO)N(C(C)=O)C2)cc(OC)c1OC
-- reply 33.5

-- ask Would you kindly repeat that for COC(=O)[C@@H]1C[C@H](NC(=O)c2cccnc2)CN1C(=O)CCc1ccc(OC)c(OC)c1 ?
-- reply 196

-- ask Next molecule: COC(=O)[C@@H]1C[C@H](NC(=O)c2cccnc2)CN1C(=O)/C=C/c1ccc(OC)c(OC)c1
-- reply 137

-- ask Next up: COC(=O)[C@@H]1C[C@H](NC(=O)c2ccc(Cl)cc2)CN1C(C)=O
-- reply 122

-- ask Likewise for COc1ccc(CCC(=O)N2C[C@@H](NC(=O)/C=C/c3ccccc3)C[C@H]2C(=O)NO)cc1OC ?
-- reply 96.6

-- ask For COC(=O)[C@@H]1C[C@H](NC(=O)c2ccncc2)CN1C(C)=O then?
-- reply 74.8

-- ask Entry to check: COC(=O)[C@@H]1C[C@H](NC(=O)/C=C/c2ccc(OC)c(OC)c2)CN1C(C)=O
-- reply 162

-- ask Next molecule: COC(=O)[C@@H]1C[C@H](NC(=O)c2cccnc2)CN1C(C)=O
-- reply 78.4

-- ask Now the molecule COC(=O)[C@@H]1C[C@H](NC(=O)c2cnccn2)CN1C(C)=O
-- reply 82.6

====

Consider the following pIC50 values measured on 72 kDa type IV collagenase (Homo sapiens, UniProt P08253).
Sequence (P08253 whole entry): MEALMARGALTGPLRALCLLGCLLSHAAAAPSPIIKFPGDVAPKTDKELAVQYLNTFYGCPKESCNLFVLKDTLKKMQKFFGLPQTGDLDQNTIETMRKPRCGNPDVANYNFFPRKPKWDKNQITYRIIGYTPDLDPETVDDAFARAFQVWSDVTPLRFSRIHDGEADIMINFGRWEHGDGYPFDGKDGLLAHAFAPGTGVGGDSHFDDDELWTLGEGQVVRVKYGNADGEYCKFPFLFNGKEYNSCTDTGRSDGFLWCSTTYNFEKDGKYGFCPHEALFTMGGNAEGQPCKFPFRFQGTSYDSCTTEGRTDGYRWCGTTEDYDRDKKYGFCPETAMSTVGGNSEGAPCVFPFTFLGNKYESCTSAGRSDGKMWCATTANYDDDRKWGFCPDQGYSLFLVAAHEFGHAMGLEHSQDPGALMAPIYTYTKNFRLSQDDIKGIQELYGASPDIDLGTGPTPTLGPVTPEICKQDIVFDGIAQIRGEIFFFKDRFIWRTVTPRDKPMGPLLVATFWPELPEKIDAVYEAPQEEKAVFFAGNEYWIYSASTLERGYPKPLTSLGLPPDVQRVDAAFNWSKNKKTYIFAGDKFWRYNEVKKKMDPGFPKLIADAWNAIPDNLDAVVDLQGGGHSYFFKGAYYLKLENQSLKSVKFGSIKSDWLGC
The scale used: pIC50 is minus the common logarithm of the concentration in molar units.

-- ask Which measured pIC50 value corresponds to CC(=O)N1C[C@@H](NC(=O)/C=C/c2ccccc2)C[C@H]1C(=O)NO ?
-- reply 8.40

-- ask Also, CC(=O)N1C[C@@H](NC(=O)c2cccnc2)C[C@H]1C(=O)NO please.
-- reply 8.30

-- ask Continue with COC(=O)[C@@H]1C[C@@H](O)CN1C(C)=O
-- reply 5.70

-- ask For COc1ccc(CCC(=O)N2C[C@@H](NC(=O)/C=C/c3ccccc3)C[C@H]2C(=O)NO)cc1OC then?
-- reply 7.96

-- ask Next compound: COC(=O)[C@@H]1C[C@@H](OS(=O)(=O)c2ccc(C)cc2)CN1C(C)=O
-- reply 6.52

-- ask Follow-up entry: COC(=O)[C@@H]1C[C@H](NC(=O)c2cc(OC)c(OC)c(OC)c2)CN1C(C)=O
-- reply 7.00

-- ask What about COC(=O)[C@@H]1C[C@H](NC(=O)c2ccc(Cl)cc2)CN1C(C)=O ?
-- reply 5.38

-- ask What about COC(=O)[C@@H]1C[C@H](NC(=O)c2ccncc2)CN1C(C)=O ?
-- reply 5.66

-- ask Repeat with COC(=O)[C@@H]1C[C@H](N)CN1C(=O)CCc1ccc(OC)c(OC)c1
-- reply 5.68

-- ask Record: COC(=O)[C@@H]1C[C@H](NC(=O)/C=C/c2ccc(OC)c(OC)c2)CN1C(C)=O
-- reply 6.10

-- ask Param item: COC(=O)[C@@H]1C[C@H](NC(=O)c2ccccc2)CN1C(C)=O
-- reply 5.57
